// provenance: patent US8853196B2

# pKi values compiled below
study-target: human GlyT1c transporter (Homo sapiens, UniProt P48067)
Construct: membranes)
Sequence (P48067 whole entry): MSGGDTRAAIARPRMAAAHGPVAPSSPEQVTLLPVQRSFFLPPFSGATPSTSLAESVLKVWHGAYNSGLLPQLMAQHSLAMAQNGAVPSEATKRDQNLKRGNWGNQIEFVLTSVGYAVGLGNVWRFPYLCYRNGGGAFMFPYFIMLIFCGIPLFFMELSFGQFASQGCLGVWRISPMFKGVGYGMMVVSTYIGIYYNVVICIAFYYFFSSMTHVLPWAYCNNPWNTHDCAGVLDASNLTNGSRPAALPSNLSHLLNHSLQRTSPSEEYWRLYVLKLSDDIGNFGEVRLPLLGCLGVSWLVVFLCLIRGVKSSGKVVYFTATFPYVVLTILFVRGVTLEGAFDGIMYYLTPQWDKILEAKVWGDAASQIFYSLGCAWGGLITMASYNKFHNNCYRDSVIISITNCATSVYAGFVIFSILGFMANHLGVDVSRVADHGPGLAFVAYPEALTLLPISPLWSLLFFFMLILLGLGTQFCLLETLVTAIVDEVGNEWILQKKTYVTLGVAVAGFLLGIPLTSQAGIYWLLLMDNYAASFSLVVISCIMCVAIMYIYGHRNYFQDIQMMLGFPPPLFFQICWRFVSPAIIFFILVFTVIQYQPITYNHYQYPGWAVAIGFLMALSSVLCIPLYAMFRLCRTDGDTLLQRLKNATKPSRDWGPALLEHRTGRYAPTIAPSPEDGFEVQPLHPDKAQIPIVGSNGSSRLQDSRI
protocol-summary: Radioligand binding assay using recombinant CHO cell membranes expressing human GlyT1
experimental-conditions: values given as upper bounds, read-out: radioligand binding Kiapp
pKi: −log10 of the molar value.
result-type: pKi

compound="CN[C@@H]1COc2ccc(CNS(=O)(=O)c3cn(C)cn3)cc2[C@H]1Cc1ccccc1 (relative stereo) [Example 5b]" result_type=pKi observed="≥ 8.00"
compound="O=S(=O)(CC1CC1)NCc1ccc2c(c1)C(Cc1ccccc1)C(N1CCC1)CO2 (centres unmarked) [Example 21]" result_type=pKi observed="≥ 7.00"
compound="Cn1cnc(S(=O)(=O)NCc2ccc3c(c2)[C@H](Cc2ccccc2)[C@H](NCCC2CC2)CO3)c1 (relative stereo) [Example 33, 2,2,2-trifluoroacetate]" result_type=pKi observed="≥ 8.00"
compound="NC1COc2ccc(CNS(=O)(=O)c3ccoc3)cc2C1Cc1ccccc1 (centres unmarked) [Example 54, 2,2,2-trifluoroacetate]" result_type=pKi observed="≥ 7.00"
compound="CCS(=O)(=O)NCc1ccc2c(c1)[C@@H](Cc1ccccc1)[C@H](NC)CO2 (relative stereo) [Example 9b]" result_type=pKi observed="≥ 6.00"
compound="Cn1cnc(S(=O)(=O)NCc2ccc3c(c2)[C@H](Cc2ccccc2)[C@H](N2CCCC2)CO3)c1 (relative stereo) [Example 62]" result_type=pKi observed="≥ 8.00"
compound="CN[C@@H]1COc2ccc(CNS(=O)(=O)c3cn(C)cn3)cc2[C@@H]1Cc1ccccc1 (relative stereo) [Example 5a]" result_type=pKi observed="≥ 8.00"
compound="CC(C)S(=O)(=O)NCc1ccc2c(c1)C(Cc1ccccc1)C(N)CO2 (centres unmarked) [Example 48, 2,2,2-trifluoroacetate]" result_type=pKi observed="≥ 6.00"
compound="CCCS(=O)(=O)NCCOc1ccc2c(c1)[C@H](Cc1ccccc1)[C@H](NC)CO2 (relative stereo) [Example 3a]" result_type=pKi observed="≥ 7.00"
compound="Cc1ccc(S(=O)(=O)NCc2ccc3c(c2)C(Cc2ccccc2)C(N)CO3)o1 (centres unmarked) [Example 52, 2,2,2-trifluoroacetate]" result_type=pKi observed="≥ 6.00"
compound="CC(C)CCN[C@@H]1COc2ccc(CNS(=O)(=O)c3cn(C)cn3)cc2[C@@H]1Cc1ccccc1 (relative stereo) [Example 39, 2,2,2-trifluoroacetate]" result_type=pKi observed="≥ 8.00"
compound="N[C@@H]1COc2ccc(CNS(=O)(=O)C3CCC3)cc2[C@H]1Cc1ccccc1 (relative stereo) [Example 70]" result_type=pKi observed="≥ 6.00"
compound="N[C@@H]1COc2ccc(CNS(=O)(=O)CC3CC3)cc2[C@@H]1Cc1ccccc1 (relative stereo) [Example 67]" result_type=pKi observed="≥ 8.00"
compound="Cc1csc(S(=O)(=O)NCc2ccc3c(c2)C(Cc2ccccc2)C(N)CO3)c1 (centres unmarked) [Example 56, 2,2,2-trifluoroacetate]" result_type=pKi observed="≥ 7.00"

---

study-target: human GlyT1c transporter (Homo sapiens, UniProt P48067)
Construct: membranes)
protocol-summary: Radioligand binding assay using recombinant CHO cell membranes expressing human GlyT1
experimental-conditions: values given as upper bounds, read-out: radioligand binding Kiapp
result-type: Ki

compound="CCS(=O)(=O)NCCOc1ccc2c(c1)[C@@H](Cc1ccccc1)[C@H](NC)C(C)(C)O2 (relative stereo) [Example 73]" observed="≤ 1000 nM"
compound="Cn1cnc(S(=O)(=O)NCc2ccc3c(c2)[C@@H](Cc2ccccc2)[C@H](N)CO3)c1 (relative stereo) [Example 13]" observed="≤ 10 nM"
compound="CN[C@H]1[C@@H](Cc2ccccc2)c2cc(OCCNS(=O)(=O)CC3CC3)ccc2OC1(C)C (relative stereo) [Example 76]" observed="≤ 1000 nM"
compound="CS(=O)(=O)NCc1ccc2c(c1)[C@H](Cc1ccccc1)[C@H](N1CCCC1)CO2 (relative stereo) [Example 64]" observed="≤ 1000 nM"
compound="CN[C@H]1[C@H](Cc2ccccc2)c2cc(OCCNS(=O)(=O)CC3CC3)ccc2OC1(C)C (relative stereo) [Example 77]" observed="≤ 1000 nM"
compound="CCCS(=O)(=O)NCc1ccc2c(c1)[C@@H](Cc1ccccc1)[C@H](NC)CO2 (relative stereo) [Example 7b]" observed="≤ 100 nM"
compound="CN[C@@H]1COc2ccc(OCCNS(=O)(=O)CC3CC3)cc2[C@H]1Cc1ccccc1 (relative stereo) [Example 4b]" observed="≤ 100 nM"

---

# Ki values compiled below
study-target: human GlyT1c transporter (Homo sapiens, UniProt P48067)
Construct: membranes)
protocol-summary: Radioligand binding assay using recombinant CHO cell membranes expressing human GlyT1
experimental-conditions: values given as upper bounds, read-out: radioligand binding Kiapp
result-type: Ki

compound="O=S(=O)(CC1CC1)NCCOc1ccc2c(c1)[C@H](Cc1ccccc1)[C@H](N1CCC1)CO2 (relative stereo) [Example 11]" result_type=Ki observed="≤ 1000 nM"
compound="CCS(=O)(=O)NCCOc1cc2c(cc1F)OC[C@@H](NC)[C@H]2Cc1ccccc1 (relative stereo) [Example 29]" result_type=Ki observed="≤ 100 nM"
compound="Cn1cnc(S(=O)(=O)NCc2ccc3c(c2)[C@H](Cc2ccccc2)[C@H](NCC2CCCC2)CO3)c1 (relative stereo) [Example 40, 2,2,2-trifluoroacetate]" result_type=Ki observed="≤ 100 nM"

---

study-target: human GlyT1c transporter (Homo sapiens, UniProt P48067)
Construct: membranes)
protocol-summary: Radioligand binding assay using recombinant CHO cell membranes expressing human GlyT1
experimental-conditions: values given as upper bounds, read-out: radioligand binding Kiapp
result-type: Ki

molecule="Cc1cc(S(=O)(=O)NCc2ccc3c(c2)C(Cc2ccccc2)C(N)CO3)c(C)o1 (stereo not shown) [Example 50, 2,2,2-trifluoroacetate]" study_target="human GlyT1c transporter (Homo sapiens, UniProt P48067)" observed="≤ 100 nM"
molecule="CCS(=O)(=O)NCCOc1ccc2c(c1)[C@H](Cc1ccccc1)[C@H](N1CCC1)CO2 (relative stereo) [Example 18]" study_target="human GlyT1c transporter (Homo sapiens, UniProt P48067)" observed="≤ 100 nM"
molecule="CN[C@@H]1COc2ccc(CNS(=O)(=O)C3CCC3)cc2[C@H]1Cc1ccccc1 (relative stereo) [Example 26]" study_target="human GlyT1c transporter (Homo sapiens, UniProt P48067)" observed="≤ 1000 nM"
molecule="CCS(=O)(=O)NCc1cc2c(cc1F)OC[C@@H](NC)[C@H]2Cc1ccccc1 (relative stereo) [Example 27]" study_target="human GlyT1c transporter (Homo sapiens, UniProt P48067)" observed="≤ 10 nM"
molecule="Cc1ccc(S(=O)(=O)NCc2ccc3c(c2)C(Cc2ccccc2)C(N)CO3)s1 (stereo not shown) [Example 53, 2,2,2-trifluoroacetate]" study_target="human GlyT1c transporter (Homo sapiens, UniProt P48067)" observed="≤ 1000 nM"
molecule="NC1COc2ccc(CNS(=O)(=O)N3CCOCC3)cc2C1Cc1ccccc1 (stereo not shown) [Example 44, 2,2,2-trifluoroacetate]" study_target="human GlyT1c transporter (Homo sapiens, UniProt P48067)" observed="≤ 10000 nM"
molecule="Cn1cnc(S(=O)(=O)NCc2ccc3c(c2)[C@H](Cc2ccccc2)[C@H](NCCC2CCCC2)CO3)c1 (relative stereo) [Example 34, 2,2,2-trifluoroacetate]" study_target="human GlyT1c transporter (Homo sapiens, UniProt P48067)" observed="≤ 10000 nM"
molecule="CCS(=O)(=O)NCc1cc2c(cc1F)OC[C@@H](NC)[C@@H]2Cc1ccccc1 (relative stereo) [Example 28]" study_target="human GlyT1c transporter (Homo sapiens, UniProt P48067)" observed="≤ 100 nM"
molecule="CN[C@@H]1COc2ccc(CNS(=O)(=O)C3CCC3)cc2[C@@H]1Cc1ccccc1 (relative stereo) [Example 25]" study_target="human GlyT1c transporter (Homo sapiens, UniProt P48067)" observed="≤ 100 nM"
molecule="Cn1cc(S(=O)(=O)NCc2ccc3c(c2)[C@H](Cc2ccccc2)[C@H](N2CCC2)CO3)cn1 (relative stereo) [Example 15]" study_target="human GlyT1c transporter (Homo sapiens, UniProt P48067)" observed="≤ 10 nM"
molecule="CCS(=O)(=O)NCc1ccc2c(c1)[C@H](Cc1ccccc1)[C@H](NC)CO2 (relative stereo) [Example 9a]" study_target="human GlyT1c transporter (Homo sapiens, UniProt P48067)" observed="≤ 100 nM"
molecule="CCS(=O)(=O)NCc1ccc2c(c1)[C@H](Cc1ccccc1)[C@H](N1CCCC1)CO2 (relative stereo) [Example 63]" study_target="human GlyT1c transporter (Homo sapiens, UniProt P48067)" observed="≤ 100 nM"
molecule="Cn1cnc(S(=O)(=O)NCc2ccc3c(c2)[C@H](Cc2ccccc2)[C@H](NCC2CCC2)CO3)c1 (relative stereo) [Example 41, 2,2,2-trifluoroacetate]" study_target="human GlyT1c transporter (Homo sapiens, UniProt P48067)" observed="≤ 10 nM"
